Tested on: CCRIS mutagenicity, Ames/micronucleus/aberration tests
assayText: CCRIS mutagenicity studies
experimentalParameters: Test System: AMES SALMONELLA TYPHIMURIUM; Strain/Indicator: TA100; Metabolic Activation: NONE; Method: STANDARD PLATE
Calls of active or inactive are those of the source. No rule for the calls is given here.

{"columns": ["compound", "mutagenic call"],
 "data": [
  ["C=CCc1ccc2c(c1)OCO2", "inactive; negative"],
  ["CCCCOc1c(C(=O)NOC(C)=O)cccc1[N+](=O)[O-]", "inactive; negative"],
  ["O=[N+]([O-])c1cc2cccc3c4c(c5cccc1c5c23)CCCC4", "active; positive"],
  ["COC1=CC(=O)c2c(ncc3c2[nH]c2ccncc23)C1=O", "active; positive"],
  ["Cc1ccc(S(=O)(=O)OC[C@H]2CO2)cc1", "active; positive"],
  ["O=C(O)c1cc2c(c3c1c([N+](=O)[O-])cc1ccccc13)OCO2", "active; positive"],
  ["CNC(=O)NO", "inactive; negative"],
  ["CN1C(=O)[C@]23CC4=CC=C[C@H](O)[C@H]4N2C(=O)[C@@]1(CO)SS3", "inactive; negative"],
  ["CC(=O)Nc1snc2ccc(Cl)cc12", "inactive; negative"],
  ["CC1(C)[C@H](C=C(Cl)Cl)[C@H]1C(=O)OCc1cccc(Oc2ccccc2)c1", "inactive; negative"],
  ["CSC(C)(C)/C=N/O", "inactive; negative"],
  ["O=[N+]([O-])c1cc(Cl)cc(Cl)c1O", "inactive; negative"],
  ["Cc1cccc(C)c1C", "active; positive"],
  ["CCC(CCCC(=O)O)COC(=O)c1ccccc1C(=O)O (stereo not drawn)", "inactive; negative"],
  ["O=C(OCC1CCC2OC2C1)C1CCC2OC2C1 (stereo not drawn)", "inactive; negative"],
  ["ONc1ccc(Cl)c(Cl)c1", "inactive; negative"],
  ["CCC1(c2ccccc2)C(=O)N=C(O)NC1=O (stereo not drawn)", "inactive; negative"],
  ["CC(=O)O[C@H]1C(=O)[C@@]2(C)[C@H]([C@H](OC(=O)c3ccccc3)[C@]3(O)C[C@H](OC(=O)[C@H](O)[C@@H](NC(=O)c4ccccc4)c4ccccc4)C(C)=C1C3(C)C)[C@]1(OC(C)=O)CO[C@@H]1C[C@@H]2O", "inactive; negative"],
  ["O=[N+]([O-])c1cc2[nH]c3ccc4ccccc4c3c2c2ccc(O)cc12", "active; positive"],
  ["O=[N+]([O-])c1ccc(Cl)c(Cl)c1", "inactive; negative"],
  ["O=c1[nH]cc(F)c(=O)[nH]1", "inactive; negative"],
  ["CC(Br)C(=O)NCc1ccccc1 (stereo not drawn)", "active; positive"],
  ["CCC/C=N/O", "inactive; negative"],
  ["C=C(C)C(=O)OCC(C)(C)COC(=O)C(=C)C", "inactive; negative"],
  ["O=NN1CCSC1", "active; positive"],
  ["Nc1cccc2c1C(=O)c1cccc(N)c1C2=O", "inactive; negative"],
  ["CCCCC(CC)COC(=O)c1ccc(C(=O)OCC(CC)CCCC)cc1 (stereo not drawn)", "inactive; negative"],
  ["COc1ccc(CN(CCN(C)C)c2ccccn2)cc1", "inactive; negative"],
  ["CC(C)CCOS(C)(=O)=O", "active; positive"],
  ["CCC(=O)NCc1ccccc1", "inactive; negative"],
  ["CCCCC(CC)COC(=O)c1ccccc1C(=O)OCC(CC)CCCC (stereo not drawn)", "inactive; negative"],
  ["CS(=O)(=O)OCCCCOS(C)(=O)=O", "inactive; negative"],
  ["CC(=O)C(Cl)(Cl)Cl", "active; positive"]
]}

---

Tested on: CCRIS mutagenicity, Ames/micronucleus/aberration tests
assayText: CCRIS mutagenicity studies
experimentalParameters: Test System: AMES SALMONELLA TYPHIMURIUM; Strain/Indicator: TA1537; Metabolic Activation: RAT, LIVER, S-9, AROCLOR 1254 (10%); Method: PREINCUBATION
Calls of active or inactive are those of the source. No rule for the calls is given here.
Labels: Yes for active, No for inactive

{"columns": ["compound", "targetUnderTest", "labelClass"],
 "data": [
  ["Nc1ccc([N+](=O)[O-])c(N)c1", "CCRIS mutagenicity, Ames/micronucleus/aberration tests", "No"],
  ["COP(=O)(OC)C(O)C(Cl)(Cl)Cl (stereo unspecified)", "CCRIS mutagenicity, Ames/micronucleus/aberration tests", "No"],
  ["O=C1CCc2ccccc2O1", "CCRIS mutagenicity, Ames/micronucleus/aberration tests", "No"],
  ["CCN(CC)CCO", "CCRIS mutagenicity, Ames/micronucleus/aberration tests", "No"],
  ["CC(O)CN (stereo unspecified)", "CCRIS mutagenicity, Ames/micronucleus/aberration tests", "No"],
  ["O=C(O)c1ccccc1", "CCRIS mutagenicity, Ames/micronucleus/aberration tests", "No"],
  ["CCCCCC(N)=O", "CCRIS mutagenicity, Ames/micronucleus/aberration tests", "No"],
  ["CCCCCCCCCCCOC(=O)c1ccccc1C(=O)OCCCCCCCCCCC", "CCRIS mutagenicity, Ames/micronucleus/aberration tests", "No"],
  ["C=C(C)C(=O)OCCCC", "CCRIS mutagenicity, Ames/micronucleus/aberration tests", "No"],
  ["CCCCCCC(C)COC(=O)c1ccccc1C(=O)OCC(C)CCCCCC (stereo unspecified)", "CCRIS mutagenicity, Ames/micronucleus/aberration tests", "No"],
  ["C=CC[Si](C)(C)C", "CCRIS mutagenicity, Ames/micronucleus/aberration tests", "No"],
  ["CC(C)CCC[C@@H](C)[C@H]1CC[C@H]2[C@@H]3CC=C4C[C@@H](OC(=O)Cc5ccc(N(CCCl)CCCl)cc5)CC[C@]4(C)[C@H]3CC[C@]12C", "CCRIS mutagenicity, Ames/micronucleus/aberration tests", "No"],
  ["CCCCCNCCCCC", "CCRIS mutagenicity, Ames/micronucleus/aberration tests", "No"],
  ["Nc1c(N=Nc2ccc(-c3ccc(NN=C4C=CC(=O)C=C4)cc3)cc2)c(S(=O)(=O)O)cc2c1C(=O)/C(=N/Nc1ccccc1)C(S(=O)(=O)O)=C2", "CCRIS mutagenicity, Ames/micronucleus/aberration tests", "No"],
  ["CC(=O)OCc1ccco1", "CCRIS mutagenicity, Ames/micronucleus/aberration tests", "No"],
  ["C=C(C)C1CC=C(C)C(O)C1 (stereo unspecified)", "CCRIS mutagenicity, Ames/micronucleus/aberration tests", "No"],
  ["O=[N+]([O-])c1ccccc1CCl", "CCRIS mutagenicity, Ames/micronucleus/aberration tests", "No"],
  ["CN(CCO)CCO", "CCRIS mutagenicity, Ames/micronucleus/aberration tests", "No"],
  ["Nc1c2ccccc2nc2ccccc12", "CCRIS mutagenicity, Ames/micronucleus/aberration tests", "Yes"],
  ["CCCCNC(=O)n1c(NC(=O)OC)nc2ccccc21", "CCRIS mutagenicity, Ames/micronucleus/aberration tests", "No"],
  ["CN(C)CCN(Cc1ccccc1)c1ccccc1", "CCRIS mutagenicity, Ames/micronucleus/aberration tests", "No"]
]}

---

Test system: CCRIS mutagenicity, Ames/micronucleus/aberration tests
assayText: CCRIS mutagenicity studies
experimentalParameters: Test System: AMES SALMONELLA TYPHIMURIUM; Strain/Indicator: TA1537; Metabolic Activation: RAT, LIVER, S-9, AROCLOR 1254; Method: STANDARD PLATE
Calls of active or inactive are those of the source. No rule for the calls is given here.
Possible outcomes: class 1 = active, class 0 = inactive

{"columns": ["compound", "labelClass"],
 "data": [
  ["Nc1cc(CCO)c(N)c([N+](=O)[O-])c1", "class 0"],
  ["COc1ccc(S(=O)(=O)n2ncc(Cl)c(Cl)c2=O)cc1", "class 0"],
  ["NCCN1CCNCC1", "class 0"],
  ["C[C@]12CCC(=O)C=C1[C@@H]1C[C@@H]1[C@H]1[C@@H]3[C@@H]4C[C@@H]4[C@@]4(CCC(=O)O4)[C@@]3(C)CC[C@@H]12", "class 0"],
  ["CCN(CC)c1ccc(N=Nc2c(Cl)cc([N+](=O)[O-])cc2[N+](=O)[O-])cc1", "class 1"],
  ["Nc1ccc(N)c2c1C(=O)c1cccc([N+](=O)[O-])c1C2=O", "class 0"],
  ["CC1=Nc2ccccc2C1(C)C", "class 0"],
  ["CC(=O)C(Cl)(Cl)Cl", "class 0"],
  ["CC(Cc1ccc(O)c(O)c1)C(C)Cc1ccc(O)c(O)c1 (stereo unspecified)", "class 0"],
  ["O=c1c(O)c(C2=CC(O)(CCO)C(O)(CCO)C=C2)oc2c1C(O)=CC(O)(CCO)C2 (stereo unspecified)", "class 0"],
  ["CCCCCCCCCCCCCCCC(=O)OC/C=C(C)/C=C/C=C(C)/C=C/C1=C(C)CCCC1(C)C", "class 0"],
  ["CC1(C)C(C=C(Cl)Cl)C1C(=O)OC(C#N)c1cccc(Oc2ccccc2)c1 (stereo unspecified)", "class 0"],
  ["CCC(C)ON=O (stereo unspecified)", "class 0"],
  ["CCC/C=N/O", "class 0"],
  ["CSC(C)(C)/C=N/O", "class 0"],
  ["CN(C)c1ccc([C@H]2C[C@]3(C)[C@@H](CC[C@]3(O)CCCO)[C@@H]3CCC4=CC(=O)CCC4=C32)cc1", "class 0"],
  ["CCCCC(CC)COC(=O)c1ccccc1C(=O)OCC(CC)CCCC (stereo unspecified)", "class 0"],
  ["NNc1nnc(NN)c2ccccc12", "class 1"],
  ["O=C(O)c1ccccc1", "class 0"],
  ["CN(C)c1ccc(N=Nc2cccnc2)cc1", "class 0"],
  ["CCCCOCCOCCOCc1cc2c(cc1CCC)OCO2", "class 0"]
]}
